- System: RARa homodimer (NR concentration 270 nM)
- METHOD DESCRIPTION: PBM binding z-score (relative to random genomic background probes); higher = stronger binding; sequences stand for … in GC…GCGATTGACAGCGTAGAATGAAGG
Answer N if PBM binding z-score is under 0.7, and Y if it is 0.7 or more.

{"BIOSEQUENCE": "AATACAGGGACATCGTAGGCCAGAGTACGCACAG", "LABEL CLASS": "N"}
{"BIOSEQUENCE": "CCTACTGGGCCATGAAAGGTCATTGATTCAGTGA", "LABEL CLASS": "Y"}
{"BIOSEQUENCE": "CCGAGTAGGTTACGAGGGGGCCTTCAGTGCGAAT", "LABEL CLASS": "N"}
{"BIOSEQUENCE": "CAAAGTAGGTCAAGGTCAAAGTCGGTTTGTGCCA", "LABEL CLASS": "Y"}
{"BIOSEQUENCE": "ATATGTAGGTAACATCCGGGTCATTCAGGCTATG", "LABEL CLASS": "Y"}
{"BIOSEQUENCE": "TCGAGTAGGTTACGGGGGCATTAAGGGATGAAGA", "LABEL CLASS": "Y"}
{"BIOSEQUENCE": "TTACCAAGGTGAAAGGTCATTGATGCACGCCTTG", "LABEL CLASS": "Y"}
{"BIOSEQUENCE": "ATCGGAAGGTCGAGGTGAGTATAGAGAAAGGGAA", "LABEL CLASS": "N"}
{"BIOSEQUENCE": "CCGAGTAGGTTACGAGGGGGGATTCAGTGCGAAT", "LABEL CLASS": "Y"}
{"BIOSEQUENCE": "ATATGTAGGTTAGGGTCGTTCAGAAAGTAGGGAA", "LABEL CLASS": "Y"}
{"BIOSEQUENCE": "CCTTACGGTTCACTGACAGGTTATAGCATTTGGA", "LABEL CLASS": "Y"}
{"BIOSEQUENCE": "CTATGTCGGTTAAGGGGGTCATTCAGTTTGAAAG", "LABEL CLASS": "Y"}
{"BIOSEQUENCE": "CCTGCTCGGTCAATGGTCAGCTAAAGCAGCTCGC", "LABEL CLASS": "N"}
{"BIOSEQUENCE": "CCTGCTAGTTCAATGGTCAGCTAAAGCAGCTCGC", "LABEL CLASS": "N"}
{"BIOSEQUENCE": "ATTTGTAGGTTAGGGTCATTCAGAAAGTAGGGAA", "LABEL CLASS": "Y"}
{"BIOSEQUENCE": "TGAATGAGGTTAAAGGTCAGGGAACGTGGCGTCG", "LABEL CLASS": "Y"}
{"BIOSEQUENCE": "TCGAGTAGGTTAGGGGGGCATTCAGGGATGAAGA", "LABEL CLASS": "Y"}
{"BIOSEQUENCE": "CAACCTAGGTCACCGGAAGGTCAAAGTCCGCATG", "LABEL CLASS": "Y"}
{"BIOSEQUENCE": "ACTAGTTGGTCACCTGAGGTCACACACAATTCGG", "LABEL CLASS": "Y"}
{"BIOSEQUENCE": "TCGAGTAAGTTACGGGGGCATTCAGGGATGAAGA", "LABEL CLASS": "N"}
{"BIOSEQUENCE": "CCTAGTGGGCCAAAGGTCATTGATTCCAATGCTC", "LABEL CLASS": "Y"}
{"BIOSEQUENCE": "ATCTCTAGGTGAAAGTTCAGTGAATCCCGAGGAT", "LABEL CLASS": "N"}
{"BIOSEQUENCE": "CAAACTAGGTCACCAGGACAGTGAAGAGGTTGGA", "LABEL CLASS": "Y"}
{"BIOSEQUENCE": "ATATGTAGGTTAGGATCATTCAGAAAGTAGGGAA", "LABEL CLASS": "Y"}
{"BIOSEQUENCE": "ACTAGTTGGTCAGCTGAGGTCACACACAATTCGG", "LABEL CLASS": "Y"}
{"BIOSEQUENCE": "CTCGAAAGGGCGTGCTCAGGTGAGTATACCAAAC", "LABEL CLASS": "N"}
{"BIOSEQUENCE": "TAGCCTAGGTCAGATCGGGCCAGTCTACGCTATA", "LABEL CLASS": "N"}
{"BIOSEQUENCE": "CTATGTAGGTTAAGGGGGTCATGCAGTTTGAAAG", "LABEL CLASS": "Y"}
{"BIOSEQUENCE": "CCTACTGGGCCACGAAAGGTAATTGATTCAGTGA", "LABEL CLASS": "N"}
{"BIOSEQUENCE": "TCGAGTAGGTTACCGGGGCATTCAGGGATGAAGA", "LABEL CLASS": "N"}
{"BIOSEQUENCE": "CCTAGTAGGTTACGAGGGGGCATTCAGTGCGAAT", "LABEL CLASS": "Y"}
{"BIOSEQUENCE": "GATACAGGGGCAAGGCCAGAGTACGCGTATTGAT", "LABEL CLASS": "N"}
{"BIOSEQUENCE": "ATATGTAGGTTAGGGTCATGCAGAAAGTAGGGAA", "LABEL CLASS": "Y"}
{"BIOSEQUENCE": "ATATATAGGTTAGGGTCATTCAGAAAGTAGGGAA", "LABEL CLASS": "Y"}
{"BIOSEQUENCE": "ATATGGAGGTTAGCTGGGGTCATTCAGACTAGGC", "LABEL CLASS": "Y"}
{"BIOSEQUENCE": "CGAACCAGGTCAAAGGACAGTGAAAGGCGACGTA", "LABEL CLASS": "N"}
{"BIOSEQUENCE": "TCGAGTAGGTTACGGGAGCATTCAGGGATGAAGA", "LABEL CLASS": "N"}
{"BIOSEQUENCE": "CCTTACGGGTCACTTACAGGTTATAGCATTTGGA", "LABEL CLASS": "Y"}
{"BIOSEQUENCE": "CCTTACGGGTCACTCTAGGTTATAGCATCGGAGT", "LABEL CLASS": "N"}
{"BIOSEQUENCE": "TCGAGTCGGTTACGGGGGCATTCAGGGATGAAGA", "LABEL CLASS": "N"}
{"BIOSEQUENCE": "CAAACTAGGTCACAGAGGTCAAACTCCGTGCGTA", "LABEL CLASS": "Y"}
{"BIOSEQUENCE": "CAAACTAGGTCACCGGAAGGTCATAGTCCGCATG", "LABEL CLASS": "Y"}
{"BIOSEQUENCE": "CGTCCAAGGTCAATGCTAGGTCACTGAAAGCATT", "LABEL CLASS": "Y"}
{"BIOSEQUENCE": "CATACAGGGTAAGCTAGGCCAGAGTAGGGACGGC", "LABEL CLASS": "N"}
{"BIOSEQUENCE": "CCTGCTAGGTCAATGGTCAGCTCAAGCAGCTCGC", "LABEL CLASS": "N"}
{"BIOSEQUENCE": "CGAACTACGTCAAAGGACAGTGAAAGGCGACGTA", "LABEL CLASS": "N"}
{"BIOSEQUENCE": "CCGAGTACGTTACGAGGGGGCATTCAGTGCGAAT", "LABEL CLASS": "N"}
{"BIOSEQUENCE": "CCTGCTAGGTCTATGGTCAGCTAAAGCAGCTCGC", "LABEL CLASS": "N"}
{"BIOSEQUENCE": "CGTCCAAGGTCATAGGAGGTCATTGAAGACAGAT", "LABEL CLASS": "Y"}
{"BIOSEQUENCE": "CCTACTGTGCCATTCAGAGGTCATTGATCATATG", "LABEL CLASS": "Y"}
